assay: activity coefficient (dimensionless); of the first substance listed, at infinite dilution; xn = mol fraction of the nth substance listed
experimentalContext: 318.15 K; 101 kPa; Liquid; Chromatography; x1 = 0
The label depends only on activity coefficient: YES if it is at least 2, NO if it is smaller.

C1=CCCCC1 [cyclohexene] + CCCC[N+]1(C)CCCC1.N#C[B-](C#N)(C#N)C#N
YES
COC(C)(C)C [2-methoxy-2-methylpropane] + CCCC[N+]1(C)CCCC1.N#C[B-](C#N)(C#N)C#N
YES

Prompt: Would you say Cc1cccc(C)c1 [1,3-dimethylbenzene] + CCCC[N+]1(C)CCCC1.N#C[B-](C#N)(C#N)C#N shows activity coefficient at minimum 2?
Completion: NO

###

assay: activity coefficient (dimensionless); of the first substance listed, at infinite dilution; xn = mol fraction of the nth substance listed
experimentalContext: 338.15 K; 101 kPa; Liquid; Chromatography; x1 = 0
observable: activity coefficient
Please reply with the value in numeric form only.

In the examples that follow, each entry is paired with its recorded activity coefficient.
CCC(C)(C)OC [2-methoxy-2-methylbutane] + CCCC[N+]1(C)CCCC1.N#C[B-](C#N)(C#N)C#N
3.35
CCCCC [pentane] + CCCC[N+]1(C)CCCC1.N#C[B-](C#N)(C#N)C#N
10.5
C1CCCCCC1 [cycloheptane] + CCCC[N+]1(C)CCCC1.N#C[B-](C#N)(C#N)C#N
9.18

Prompt: Data request, read-out activity coefficient, for C=CCCCCCC [oct-1-ene] + CCCC[N+]1(C)CCCC1.N#C[B-](C#N)(C#N)C#N
Completion: 14.1

Prompt: Cc1ccc(C)cc1 [1,4-dimethylbenzene] + CCCC[N+]1(C)CCCC1.N#C[B-](C#N)(C#N)C#N , same question.
Completion: 1.54

###

assay: activity coefficient (dimensionless); of the first substance listed, at infinite dilution; xn = mol fraction of the nth substance listed
experimentalContext: 338.15 K; 101 kPa; Liquid; Chromatography; x1 = 0
observable: activity coefficient
Lab note: jot down the number only; don't add units.

Field: example entries. Status: answers known.
Cc1ccccc1C [1,2-dimethylbenzene] + CCCC[N+]1(C)CCCC1.N#C[B-](C#N)(C#N)C#N
1.39
CC(C)=O [acetone] + CCCC[N+]1(C)CCCC1.N#C[B-](C#N)(C#N)C#N
0.454
CO [methanol] + CCCC[N+]1(C)CCCC1.N#C[B-](C#N)(C#N)C#N
0.861

Prompt: Report activity coefficient for CCCCO [butan-1-ol] + CCCC[N+]1(C)CCCC1.N#C[B-](C#N)(C#N)C#N please.
Completion: 1.55

Prompt: Request: CCCCCC [hexane] + CCCC[N+]1(C)CCCC1.N#C[B-](C#N)(C#N)C#N
Completion: 14.3

###

assay: activity coefficient (dimensionless); of the first substance listed, at infinite dilution; xn = mol fraction of the nth substance listed
experimentalContext: 358.15 K; 101 kPa; Liquid; Chromatography; x1 = 0
As shown below, each of these compounds has a reported activity coefficient value.
// print number alone

C=CCCCCCC [oct-1-ene] + CCCC[N+]1(C)CCCC1.N#C[B-](C#N)(C#N)C#N
12.6
C=CCCCCC [1-heptene] + CCCC[N+]1(C)CCCC1.N#C[B-](C#N)(C#N)C#N
9.09
C1CCCC1 [cyclopentane] + CCCC[N+]1(C)CCCC1.N#C[B-](C#N)(C#N)C#N
4.88

As a next step, examine the compound that follows.
Prompt: Data request, read-out activity coefficient, for CC1CCCCC1 [methylcyclohexane] + CCCC[N+]1(C)CCCC1.N#C[B-](C#N)(C#N)C#N
Completion: 9.38
